# Tested on: Mycosphaerella graminicola; Anamorph: Septoria tritici; Bayer Code SEPTTR
# ASSAY SUMMARY: Leaf blotch of wheat, foliar fungicide treatment, one day protectant (1DP) or three day curative (3DC)
# Type: in vivo, Septoria tritici on wheat plants (variety Yuma)
# SETTINGS: Zymoseptoria tritici, 24 h, one day protectant (1DP), 25 ppm, rating of percent disease control, read-out: SETTTR 1DP 25 ppm
Listed compounds paired with reported pest or weed control at 25 ppm
ASSAY READOUT: pest or weed control at 25 ppm

>>> print(df.to_string())
                                   compound  meas_value
0  CN(N)c1nc(OCc2ccccc2)ncc1F [Compound 395]    0 to 25%
1  COc1cc(COc2ncc(F)c(N)n2)cc(Cl)n1 [Compound 311]  76 to 100%
2  Nc1nc(Oc2ccc(Cl)c3ccccc23)ncc1F [Compound 378]   51 to 75%
3  Cc1nc(C)c(COc2ncc(F)c(N)n2)s1 [Compound 772]  76 to 100%
4  COc1ccc(COc2ncc(F)c(NC(=S)Nc3ccccc3F)n2)cc1F [Compound 769]   51 to 75%

----------
# System: Mycosphaerella graminicola; Anamorph: Septoria tritici; Bayer Code SEPTTR
# ASSAY SUMMARY: Leaf blotch of wheat, foliar fungicide treatment, one day protectant (1DP) or three day curative (3DC)
# Assay type: in vivo, Septoria tritici on wheat plants (variety Yuma)
# SETTINGS: Zymoseptoria tritici, 24 h, one day protectant (1DP), 100 ppm, rating of percent disease control, read-out: SEPTTR 1DP 100 ppm
ASSAY READOUT: pest or weed control at 100 ppm

In [3]: df
Out[3]:
                                    compound                    assay_readout  meas_value
 0  Nc1nc(OCC2CC2(F)F)ncc1F (centres unmarked) [Compound 509]  pest or weed control at 100 ppm    0 to 25%
 1  Nc1nc(OC(c2ccc(F)cc2)c2ccc(F)cc2)ncc1F [Compound 355]  pest or weed control at 100 ppm  76 to 100%
 2  Nc1nc(OCc2ccc(O)cc2)ncc1F [Compound 284]  pest or weed control at 100 ppm    0 to 25%
 3  CN(C)/C=N/c1nc(OCc2cccc(N)c2)ncc1F [Compound 303]  pest or weed control at 100 ppm  76 to 100%
 4  CC(C)c1ccc(COc2ncc(F)c(N)n2)cc1 [Compound 197]  pest or weed control at 100 ppm  76 to 100%
 5  CC(=O)OC[C@H]1O[C@@H](Oc2ncc(F)c(N)n2)[C@H](OC(C)=O)[C@@H](OC(C)=O)[C@@H]1OC(C)=O [Compound 192]  pest or weed control at 100 ppm  76 to 100%
 6  COc1ccc(COc2ncc(F)c(NCc3ccccc3F)n2)cc1 [Compound 249]  pest or weed control at 100 ppm  76 to 100%
 7  O=[N+]([O-])c1ccccc1SNc1nc(OCc2ccc(F)c(C(F)(F)F)c2)ncc1F [Compound 527]  pest or weed control at 100 ppm  76 to 100%
 8     CNc1nc(OCc2cccs2)ncc1F [Compound 237]  pest or weed control at 100 ppm    0 to 25%
 9  COc1ccccc1COc1ncc(F)c(/N=C2\CCCCN2C)n1 [Compound 317]  pest or weed control at 100 ppm  76 to 100%
10  COc1ccccc1OC(=O)Oc1ncc(F)c(/N=C/N(C)C)n1 [Compound 444]  pest or weed control at 100 ppm  76 to 100%
11  CC(C)/C(=N\c1nc(OCc2ccc(F)cc2)ncc1F)N(C)C [Compound 744]  pest or weed control at 100 ppm  76 to 100%
12  CN1CCCC/C1=N\c1nc(OCc2cccc(F)c2)ncc1F [Compound 326]  pest or weed control at 100 ppm  76 to 100%
13  COc1cccc(COc2ncc(F)c(NNc3ccccc3)n2)c1 [Compound 306]  pest or weed control at 100 ppm  76 to 100%
14  Nc1nc(OCc2cn3ccsc3n2)ncc1F [Compound 472]  pest or weed control at 100 ppm  76 to 100%
15  Nc1nc(OCc2cccc(OC(F)(F)F)c2)ncc1F [Compound 460]  pest or weed control at 100 ppm  76 to 100%
16  CN(N)c1nc(OCc2ccccc2)ncc1F [Compound 395]  pest or weed control at 100 ppm    0 to 25%
17  Cc1ccc(COc2ncc(F)c(/N=C/N(C)C)n2)cc1 [Compound 469]  pest or weed control at 100 ppm  76 to 100%
18  COCCOC(=O)Nc1nc(OCc2ccc(F)cc2)ncc1F [Compound 280]  pest or weed control at 100 ppm  76 to 100%
19  O=C(Nc1ccccc1F)Nc1nc(OCc2cccc(F)c2)ncc1F [Compound 231]  pest or weed control at 100 ppm    0 to 25%
20  C/C(=N\Nc1nc(OCc2ccc(C)cc2)ncc1F)c1ccc(Cl)nc1 [Compound 301]  pest or weed control at 100 ppm   26 to 50%
21  COc1cccc(COc2ncc(F)c(NC(=O)OCc3ccccc3)n2)c1 [Compound 531]  pest or weed control at 100 ppm  76 to 100%
22  CCOCNc1nc(OCc2cccc(C#N)c2)ncc1F [Compound 516]  pest or weed control at 100 ppm  76 to 100%
23  CC[Si](CC)(CC)Nc1nc(OCc2ccn(C)n2)ncc1F [Compound 434]  pest or weed control at 100 ppm  76 to 100%
24  CC(C)(C)OC(=O)NNc1nc(OCc2ccccc2)ncc1F [Compound 765]  pest or weed control at 100 ppm   26 to 50%
25  COc1cccc(COc2ncc(F)c(NC(=O)Cc3ccccc3)n2)c1 [Compound 773]  pest or weed control at 100 ppm  76 to 100%

----------
# Test system: Mycosphaerella graminicola; Anamorph: Septoria tritici; Bayer Code SEPTTR
# ASSAY SUMMARY: Leaf blotch of wheat, foliar fungicide treatment, one day protectant (1DP) or three day curative (3DC)
# Format: in vivo, Septoria tritici on wheat plants (variety Yuma)
# SETTINGS: Zymoseptoria tritici, 72 h, three day curative (3DC), 25 ppm, percent control rating, read-out: SEPTTR 3DC 25 ppm
ASSAY READOUT: pest or weed control at 25 ppm

>>> df
                                   molecule                           subject_of_test  meas_value
0  CN(C)/C=N/c1nc(OCOC(=O)C2CCCC2)ncc1F [Compound 1084]  Mycosphaerella graminicola; Anamorph: Septoria tritici; Bayer Code SEPTTR  76 to 100%
1  COc1ncc(F)c(/N=N/c2ccccc2Cl)n1 [Compound 1110]  Mycosphaerella graminicola; Anamorph: Septoria tritici; Bayer Code SEPTTR    0 to 25%
2         CCOCNc1nc(O)ncc1F [Compound 1115]  Mycosphaerella graminicola; Anamorph: Septoria tritici; Bayer Code SEPTTR   26 to 50%
3  O=CNc1nc(OCOC(=O)C2CCCC2)ncc1F [Compound 1126]  Mycosphaerella graminicola; Anamorph: Septoria tritici; Bayer Code SEPTTR  76 to 100%
4  COc1ccc(/C(C)=N/Oc2ncc(F)c(N)n2)cc1 [Compound 999]  Mycosphaerella graminicola; Anamorph: Septoria tritici; Bayer Code SEPTTR  76 to 100%
5          CONc1nc(OC)ncc1F [Compound 1058]  Mycosphaerella graminicola; Anamorph: Septoria tritici; Bayer Code SEPTTR    0 to 25%
6  C=CCOc1ncc(F)c(NOCc2ccccc2)n1 [Compound 1087]  Mycosphaerella graminicola; Anamorph: Septoria tritici; Bayer Code SEPTTR    0 to 25%
7  COc1ccnc(Cl)c1S(=O)(=O)Nc1nc(OCc2ccc(C)cc2)ncc1F [Compound 1016]  Mycosphaerella graminicola; Anamorph: Septoria tritici; Bayer Code SEPTTR   51 to 75%

----------
# Tested on: Mycosphaerella graminicola; Anamorph: Septoria tritici; Bayer Code SEPTTR
# ASSAY SUMMARY: Leaf blotch of wheat, foliar fungicide treatment, one day protectant (1DP) or three day curative (3DC)
# Format: in vivo, Septoria tritici on wheat plants (variety Yuma)
# SETTINGS: Zymoseptoria tritici, 24 h, one day protectant (1DP), 25 ppm, rating of percent disease control, read-out: SETTTR 1DP 25 ppm
ASSAY READOUT: pest or weed control at 25 ppm

In [3]: df
Out[3]:
                                    compound                           subject_of_test  meas_value
 0             COc1c(F)cccc1COc1ncc(F)c(N)n1  Mycosphaerella graminicola; Anamorph: Septoria tritici; Bayer Code SEPTTR  76 to 100%
 1         Fc1cnc(OCc2cccs2)nc1/N=C/N1CCOCC1  Mycosphaerella graminicola; Anamorph: Septoria tritici; Bayer Code SEPTTR  76 to 100%
 2             CN(CCOc1ncc(F)c(N)n1)c1ccccc1  Mycosphaerella graminicola; Anamorph: Septoria tritici; Bayer Code SEPTTR   26 to 50%
 3       CC(C)OC(=O)Oc1ncc(F)c(/N=C/N(C)C)n1  Mycosphaerella graminicola; Anamorph: Septoria tritici; Bayer Code SEPTTR  76 to 100%
 4     O=C(Nc1ccsc1)Nc1nc(OCCNc2ccccc2)ncc1F  Mycosphaerella graminicola; Anamorph: Septoria tritici; Bayer Code SEPTTR    0 to 25%
 5                 CC1(COc2ncc(F)c(N)n2)COC1  Mycosphaerella graminicola; Anamorph: Septoria tritici; Bayer Code SEPTTR    0 to 25%
 6            CNN(C)c1nc(OCc2ccc(F)cc2)ncc1F  Mycosphaerella graminicola; Anamorph: Septoria tritici; Bayer Code SEPTTR    0 to 25%
 7  CCCCOc1cccc(C(C)Oc2ncc(F)c(N)n2)c1 (centres unmarked)  Mycosphaerella graminicola; Anamorph: Septoria tritici; Bayer Code SEPTTR  76 to 100%
 8        CCCCCCOc1ncc(F)c(NC(=O)Nc2ccsc2)n1  Mycosphaerella graminicola; Anamorph: Septoria tritici; Bayer Code SEPTTR    0 to 25%
 9                   CN(C)/C=N/c1nc(Cl)ncc1F  Mycosphaerella graminicola; Anamorph: Septoria tritici; Bayer Code SEPTTR   26 to 50%
10               Cc1c(COc2ncc(F)c(N)n2)cnn1C  Mycosphaerella graminicola; Anamorph: Septoria tritici; Bayer Code SEPTTR  76 to 100%
11     O=C(OCNc1nc(OCc2ccc(F)cc2)ncc1F)C1CC1  Mycosphaerella graminicola; Anamorph: Septoria tritici; Bayer Code SEPTTR   51 to 75%
12           CC(C)c1ccc(COc2ncc(F)c(N)n2)cc1  Mycosphaerella graminicola; Anamorph: Septoria tritici; Bayer Code SEPTTR   51 to 75%
13      Fc1ccc(COc2ncc(F)c(NNC3CCCCC3)n2)cc1  Mycosphaerella graminicola; Anamorph: Septoria tritici; Bayer Code SEPTTR    0 to 25%
14          COc1cc(F)cc(F)c1COc1ncc(F)c(N)n1  Mycosphaerella graminicola; Anamorph: Septoria tritici; Bayer Code SEPTTR  76 to 100%
15        CN1CCCC/C1=N\c1nc(OCc2ccccc2)ncc1F  Mycosphaerella graminicola; Anamorph: Septoria tritici; Bayer Code SEPTTR  76 to 100%
16                  Nc1nc(OCCN2CCCC2=O)ncc1F  Mycosphaerella graminicola; Anamorph: Septoria tritici; Bayer Code SEPTTR    0 to 25%
